- tested_system: neutrophil elastase (Homo sapiens, UniProt P08246)
- assay_protocol: Human Neutrophil Elastase Assay
- measurement_conditions: substrate MeOSuc-Ala-Ala-Pro-Val-AMC, pH 7.5, room temperature
pIC50: −log10 of the molar value.
measured_quantity: pIC50

Example compounds with recorded pIC50:
>  <compound>
N#Cc1ccc(C2C3=C(CCCC3=O)N(c3cccc(C(F)(F)F)c3)C(=O)N2C(=O)NC2CCS(=O)(=O)C2)cc1 (stereo not drawn)

>  <recorded_measurement>
> 9.00

$$$$
>  <compound>
CNC(=O)N1C(=O)N(c2cccc(C(F)(F)F)c2)C2=C(C(=O)CCC2)C1c1ccc(C#N)cc1S(C)(=O)=O (stereo not drawn)

>  <recorded_measurement>
> 9.00

$$$$

// below: pIC50 requested for another compound
Q. What value of pIC50 has been recorded for this entry: CN1CCC(NC(=O)N2C(=O)N(c3cccc(C(F)(F)F)c3)C3=C(C(=O)CCC3)C2c2ccc(C#N)cc2)C1=O (stereo not drawn)
A. > 9.00

----------
- tested_system: neutrophil elastase (Homo sapiens, UniProt P08246)
- assay_protocol: Human Neutrophil Elastase Assay
- measurement_conditions: substrate MeOSuc-Ala-Ala-Pro-Val-AMC, pH 7.5, room temperature
pIC50: −log10 of the molar value.
Field: pIC50. Provide a value for each of the molecules that follow.

>  <molecule>
CS(=O)(=O)c1cc(C#N)ccc1[C@@H]1C2=C(CCCC2=O)N(c2cccc(C(F)(F)F)c2)C(=O)N1C(=O)NC1(C#N)CC1 [Example 75.8]

>  <tested_system>
neutrophil elastase (Homo sapiens, UniProt P08246)

>  <pIC50>
> 9.00

$$$$
>  <molecule>
CS(=O)(=O)c1ccc(CNC(=O)N2C(=O)N(c3cccc(C(F)(F)F)c3)C3=C(C(=O)CCC3)C2c2ccc(C#N)cc2)cc1 (stereo not shown) [Example 37]

>  <tested_system>
neutrophil elastase (Homo sapiens, UniProt P08246)

>  <pIC50>
> 9.00

$$$$
>  <molecule>
CS(=O)(=O)c1cc(C#N)ccc1C1C2=C(CCCC2=O)N(c2cccc(C(F)(F)F)c2)C(=O)N1CC1CCOCC1 (stereo not shown) [Example 58.5]

>  <tested_system>
neutrophil elastase (Homo sapiens, UniProt P08246)

>  <pIC50>
8.72

$$$$

// below: pIC50 requested for another molecule
Q. What value of pIC50 has been recorded for this entry: CS(=O)(=O)c1cc(C#N)ccc1[C@@H]1C2=C(CCCC2=O)N(c2cccc(C(F)(F)F)c2)C(=O)N1C(=O)NC1CC1 [Example 75.2]
A. > 9.00

----------
- tested_system: neutrophil elastase (Homo sapiens)
- Sequence (P08246 30-247 limits assumed): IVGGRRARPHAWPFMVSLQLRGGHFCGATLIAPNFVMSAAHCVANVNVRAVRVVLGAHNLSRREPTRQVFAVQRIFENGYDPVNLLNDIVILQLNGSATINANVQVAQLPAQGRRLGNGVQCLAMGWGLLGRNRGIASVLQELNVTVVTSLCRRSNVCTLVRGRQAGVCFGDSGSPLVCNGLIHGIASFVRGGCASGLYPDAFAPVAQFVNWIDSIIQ
- assay_protocol: Human Neutrophil Elastase Assay
- measurement_conditions: substrate MeOSuc-Ala-Ala-Pro-Val-AMC, pH 7.5, room temperature
measured_quantity: pIC50
One number for each entry, as −log10 of the molar value.

>  <compound>
CS(=O)(=O)c1cc(C#N)ccc1C1NC(=O)N(c2ccnc(C(F)(F)F)c2)C2=C1C(=O)CCC2 (stereo not drawn) [Example 57]

>  <tested_system>
neutrophil elastase (Homo sapiens)

>  <pIC50>
7.14

$$$$
>  <compound>
CN1CCN(C(=O)CN2C(=O)N(c3cccc(C(F)(F)F)c3)C3=C(C(=O)CCC3)C2c2ccc(C#N)cc2)CC1=O (stereo not drawn) [Example 36.37]

>  <tested_system>
neutrophil elastase (Homo sapiens)

>  <pIC50>
8.38

$$$$
>  <compound>
Cn1cc(NC(=O)CN2C(=O)N(c3cccc(C(F)(F)F)c3)C3=C(C(=O)CCC3)C2c2ccc(C#N)cc2)ccc1=O (stereo not drawn) [Example 36.53]

>  <tested_system>
neutrophil elastase (Homo sapiens)

>  <pIC50>
7.97

$$$$
>  <compound>
CC(C)(O)CCNC(=O)N1C(=O)N(c2cccc(C(F)(F)F)c2)C2=C(C(=O)CCC2)C1c1ccc(C#N)cc1 (stereo not drawn) [Example 70.16]

>  <tested_system>
neutrophil elastase (Homo sapiens)

>  <pIC50>
8.96

$$$$
>  <compound>
N#Cc1ccc(C2C3=C(CCCC3=O)N(c3cccc(C(F)(F)F)c3)C(=O)N2CC(=O)NCCN2CCCC2=O)cc1 (stereo not drawn) [Example 36.58]

>  <tested_system>
neutrophil elastase (Homo sapiens)

>  <pIC50>
8.00

$$$$

List the reported pIC50 of each compound below.
1. N#Cc1ccc(C2C3=C(CCCC3=O)N(c3cccc(C(F)(F)F)c3)C(=O)N2CC(=O)NCC2CCOC2)cc1 (stereo not drawn) [Example 36.22]
2. N#Cc1ccc(C2C3=C(CCCC3=O)N(c3cccc(C(F)(F)F)c3)C(=O)N2CC(=O)N2CCC3(CC2)CNC(=O)O3)cc1 (stereo not drawn) [Example 36.74]
3. CN1C(=O)N(c2ccnc(C(F)(F)F)c2)C2=C(C(=O)CCC2)C1c1ccc(C#N)cc1 (stereo not drawn) [Example 65]

A.
8.17
8.68
7.65

----------
- tested_system: neutrophil elastase (Homo sapiens, UniProt P08246)
- assay_protocol: Human Neutrophil Elastase Assay
- measurement_conditions: substrate MeOSuc-Ala-Ala-Pro-Val-AMC, pH 7.5, room temperature
Field: pIC50. Provide a value for each of the compounds that follow.
One number for each entry, as −log10 of the molar value.

>  <compound>
CS(=O)(=O)N1C(=O)N(c2ccnc(C(F)(F)F)c2)C2=C(C(=O)CCC2)C1c1ccc(C#N)cc1 (centres unmarked)

>  <pIC50>
7.62

$$$$
>  <compound>
N#Cc1ccc(C2C3=C(CCCC3=O)N(c3cccc(C(F)(F)F)c3)C(=O)N2C(=O)N2CC(O)C2)cc1 (centres unmarked)

>  <pIC50>
7.87

$$$$
>  <compound>
N#Cc1ccc(C2NC(=O)N(c3cccc(C(F)(F)F)c3)C3=C2C(=O)CC(c2ccccc2)C3)cc1 (centres unmarked)

>  <pIC50>
7.32

$$$$
>  <compound>
N#Cc1ccc(C2C3=C(CCCC3=O)N(c3cccc(C(F)(F)F)c3)C(=O)N2CC(=O)N2CCC(F)C2)cc1 (centres unmarked)

>  <pIC50>
8.29

$$$$
>  <compound>
CN1CC(CNC(=O)CN2C(=O)N(c3cccc(C(F)(F)F)c3)C3=C(C(=O)CCC3)C2c2ccc(C#N)cc2)CC1=O (centres unmarked)

>  <pIC50>
8.07

$$$$
>  <compound>
CC(C)(C)COC(=O)N1C(=O)N(c2cccc(C(F)(F)F)c2)C2=C(C(=O)CCC2)C1c1ccc(C#N)cc1 (centres unmarked)

>  <pIC50>
7.05

$$$$
>  <compound>
N#Cc1ccc(C2C3=C(CCCC3=O)N(c3cccc(C(F)(F)F)c3)C(=O)N2CC(=O)N2CCN3C(=O)CCCC3C2)cc1 (centres unmarked)

>  <pIC50>
8.43

$$$$
>  <compound>
N#Cc1ccc(C2NC(=O)N(c3ccc(F)c(C(F)(F)F)c3)C3=C2C(=O)CCC3)cc1 (centres unmarked)

>  <pIC50>
7.71

$$$$
>  <compound>
CN(CCN1CCOCC1)C(=O)CN1C(=O)N(c2cccc(C(F)(F)F)c2)C2=C(C(=O)CCC2)C1c1ccc(C#N)cc1 (centres unmarked)

>  <pIC50>
8.06

$$$$
>  <compound>
COc1cc(C2CC(=O)C3=C(C2)N(c2cccc(C(F)(F)F)c2)C(=O)NC3c2ccc(C#N)cc2)cc(OC)c1OC (centres unmarked)

>  <pIC50>
7.58

$$$$

List the reported pIC50 of each compound below.
1. CS(=O)(=O)c1cc(C#N)ccc1[C@@H]1C2=C(CCCC2=O)N(c2cccc(C(F)(F)F)c2)C(=O)N1CC#N
2. CS(=O)(=O)CS(=O)(=O)N1C(=O)N(c2cccc(C(F)(F)F)c2)C2=C(C(=O)CCC2)C1c1ccc(C#N)cc1 (centres unmarked)
3. N#Cc1ccc(C2C3=C(CCCC3=O)N(c3cccc(C(F)(F)F)c3)C(=O)N2CC(=O)N2CC3(CCC3)C2)cc1 (centres unmarked)
4. N#Cc1ccc(C2C3=C(CCCC3=O)N(c3cccc(C(F)(F)F)c3)C(=O)N2CC(=O)N2Cc3cccnc3C2)cc1 (centres unmarked)
5. COC1CCN(C(=O)N2C(=O)N(c3cccc(C(F)(F)F)c3)C3=C(C(=O)CCC3)C2c2ccc(C#N)cc2)CC1 (centres unmarked)
6. N#Cc1ccc(C2NC(=O)N(c3cccc(C(F)(F)F)c3)C3=C2C(=O)CC2(CCOCC2)C3)cc1 (centres unmarked)

A.
1: 8.74; 2: 8.47; 3: 8.26; 4: 8.92; 5: 7.10; 6: 6.96

List the reported pIC50 of each compound below.
1. N#Cc1ccc(C2C3=C(CCCC3=O)N(c3cccc(C(F)(F)F)c3)C(=O)N2S(=O)(=O)c2ccccc2)cc1 (centres unmarked)
2. CC1CCN(C(=O)CN2C(=O)N(c3cccc(C(F)(F)F)c3)C3=C(C(=O)CCC3)C2c2ccc(C#N)cc2)CC1 (centres unmarked)

A.
1: 7.46; 2: 7.99
